Value source: patent US10280198B2

The entries below are paired with their reported Histamine in vitro Fold change of non-treated at 10 uM.
# Tested on: rat peritoneal mast cells
# Procedure text: In vitro histamine induction in rat peritoneal mast cells
# Type: cell-based
Square brackets hold non-standard residues; d marks the D form. Peptide text beside a SMILES is read from it. dNle = CCCC[C@@H](N)C(=O)O
# output: bare number, implied unit fold

Examples with answers:
• CCCC[C@@H](NC(=O)[C@@H](CCCNC(=N)N)NC(=O)[C@@H](C)NC(=O)[C@@H](CCCNC(=N)N)NC(=O)[C@@H](CCCNC(=N)N)NC(=O)[C@@H](CS)NC(C)=O)C(=O)N[C@H](CCCNC(=N)N)C(N)=O [SEQ ID NO: 133, Ac-crrar-dNle-r-NH2] (Ac-[dC][dR][dR][dA][dR][dNle][dR]-NH2) = 4.3
• CC(=O)N[C@H](CS)C(=O)N[C@H](CCCNC(=N)N)C(=O)N[C@H](CCCNC(=N)N)C(=O)N[C@H](Cc1ccccc1)C(=O)N[C@H](CCCNC(=N)N)C(=O)N[C@H](C)C(=O)N[C@H](CCCNC(=N)N)C(N)=O [SEQ ID NO: 110, Ac-crrfrar-NH2] (Ac-[dC][dR][dR][dF][dR][dA][dR]-NH2) = 6.2

Input line: Endpoint output: Histamine in vitro Fold change of non-treated at 10 uM of CC(=O)N[C@H](CS)C(=O)N[C@H](C)C(=O)N[C@H](CCCCN)C(=O)N[C@H](CCCNC(=N)N)C(=O)N[C@H](CCCNC(=N)N)C(=O)N[C@H](C)C(=O)N[C@H](CCCNC(=N)N)C(N)=O [SEQ ID NO: 72, Ac-cakrrar-NH2] (Ac-[dC][dA][dK][dR][dR][dA][dR]-NH2) . Value?
Output line: 1.1

Input line: Quick one: CC(=O)N[C@H](CS)C(=O)N[C@H](CCCNC(=N)N)C(=O)N[C@H](CCCNC(=N)N)C(=O)N[C@H](C)C(=O)N[C@H](C)C(=O)N[C@H](CCCNC(=N)N)C(=O)N[C@H](CCCNC(=N)N)C(N)=O [SEQ ID NO: 17, Ac-crraarr-NH2] (Ac-[dC][dR][dR][dA][dA][dR][dR]-NH2)
Output line: 1.3

Input line: Quick one: CC(=O)N[C@H](CS)C(=O)N[C@H](Cc1ccccc1)C(=O)N[C@H](CCCNC(=N)N)C(=O)N[C@H](CCCNC(=N)N)C(=O)N[C@H](CCCNC(=N)N)C(=O)N[C@H](C)C(=O)N[C@H](CCCNC(=N)N)C(N)=O [SEQ ID NO: 104, Ac-cfrrrar-NH2] (Ac-[dC][dF][dR][dR][dR][dA][dR]-NH2)
Output line: 6.8

Input line: Quick one: `CC(=O)N[C@H](CS)C(=O)N[C@H](CCCNC(=N)N)C(=O)N[C@H](CCCNC(=N)N)C(=O)N[C@H](CCCNC(=N)N)C(=O)N[C@H](CCCNC(=N)N)C(=O)N[C@H](CCCNC(=N)N)C(=O)N[C@H](CCCNC(=N)N)C(N)=O`
Output line: 11.5

Input line: Quick one: CC(=O)N[C@H](CS)C(=O)N[C@H](C)C(=O)N[C@H](CCCNC(=N)N)C(=O)N[C@H](CCCNC(=N)N)C(=O)N[C@H](CCCNC(=N)N)C(=O)N1CCC[C@@H]1C(=O)N[C@H](CCCNC(=N)N)C(N)=O [SEQ ID NO: 88, Ac-carrrpr-NH2] (Ac-[dC][dA][dR][dR][dR][dP][dR]-NH2)
Output line: 1.0

Input line: Quick one: CC(=O)N[C@H](CS)C(=O)N[C@@H](C(=O)N[C@H](CCCNC(=N)N)C(=O)N[C@H](CCCNC(=N)N)C(=O)N[C@H](CCCNC(=N)N)C(=O)N[C@H](C)C(=O)N[C@H](CCCNC(=N)N)C(N)=O)[C@H](C)O [SEQ ID NO: 100, Ac-ctrrrar-NH2] (Ac-[dC][dT][dR][dR][dR][dA][dR]-NH2)
Output line: 1.1

----------
# Test system: plasma PTH
# Procedure text: In vivo PTH lowering after IV bolus in isoflurane-anesthetized normal Sprague Dawley rats
# Set-up: species or system rat
# Recorded conditions: Table 2; normal rats, AUC 1-4 h
Square brackets hold non-standard residues; d marks the D form. Peptide text beside a SMILES is read from it.
The entries below are paired with their reported 0.5 mg/kg IV bolus % PTH AUC of saline control.
# output: bare number, implied unit %

* CC(=O)N[C@H](CS)C(=O)N[C@H](C)C(=O)N[C@H](CCCNC(=N)N)C(=O)N[C@H](CCCNC(=N)N)C(=O)N[C@H](CCCNC(=N)N)C(=O)N[C@H](C)C(=O)N[C@H](CCCNC(=N)N)C(N)=O | 1
* CC(=O)N[C@H](CS)C(=O)N[C@H](C)C(=O)N[C@H](CCCNC(=N)N)C(=O)N[C@H](C)C(=O)N[C@H](CCCNC(=N)N)C(=O)N[C@H](CCCNC(=N)N)C(=O)N[C@H](CCCNC(=N)N)C(N)=O [SEQ ID NO: 15, Ac-cararrr-NH2] (Ac-[dC][dA][dR][dA][dR][dR][dR]-NH2) | 116
* CC(=O)N[C@H](CS)C(=O)N[C@H](CCCNC(=N)N)C(=O)N[C@H](C)C(=O)N[C@H](CCCNC(=N)N)C(=O)N[C@H](CCCNC(=N)N)C(=O)N[C@H](CCCNC(=N)N)C(=O)N[C@H](C)C(N)=O [SEQ ID NO: 20, Ac-crarrra-NH2] (Ac-[dC][dR][dA][dR][dR][dR][dA]-NH2) | 69

Input line: Endpoint output: 0.5 mg/kg IV bolus % PTH AUC of saline control of CC(=O)N[C@H](CS)C(=O)N[C@H](CCCNC(=N)N)C(=O)N[C@H](C)C(=O)N[C@H](CCCNC(=N)N)C(=O)N[C@H](CCCNC(=N)N)C(=O)N[C@H](C)C(=O)N[C@H](CCCNC(=N)N)C(N)=O [SEQ ID NO: 23, Ac-crarrar-NH2] (Ac-[dC][dR][dA][dR][dR][dA][dR]-NH2) . Value?
Output line: 43

Input line: Quick one: CC(=O)N[C@H](CS)C(=O)N[C@H](C)C(=O)N[C@H](CCCNC(=N)N)C(=O)N[C@H](CCCNC(=N)N)C(=O)N[C@H](CCCNC(=N)N)C(=O)N[C@H](CCCNC(=N)N)C(=O)N[C@H](C)C(N)=O [SEQ ID NO: 19, Ac-carrrra-NH2] (Ac-[dC][dA][dR][dR][dR][dR][dA]-NH2)
Output line: 72

Input line: Quick one: CC(=O)N[C@H](CS)C(=O)N[C@H](CCCNC(=N)N)C(=O)N[C@H](CCCNC(=N)N)C(=O)N[C@H](C)C(=O)N[C@H](C)C(=O)N[C@H](CCCNC(=N)N)C(=O)N[C@H](CCCNC(=N)N)C(N)=O [SEQ ID NO: 17, Ac-crraarr-NH2] (Ac-[dC][dR][dR][dA][dA][dR][dR]-NH2)
Output line: 102

Input line: Quick one: CC(=O)N[C@H](CS)C(=O)N[C@H](CCCNC(=N)N)C(=O)N[C@H](CCCNC(=N)N)C(=O)N[C@H](CCCNC(=N)N)C(=O)N[C@H](C)C(=O)N[C@H](C)C(=O)N[C@H](CCCNC(=N)N)C(N)=O [SEQ ID NO: 21, Ac-crrraar-NH2] (Ac-[dC][dR][dR][dR][dA][dA][dR]-NH2)
Output line: 50

Input line: Quick one: CC(=O)N[C@H](CS)C(=O)N[C@H](CCCNC(=N)N)C(=O)N[C@H](C)C(=O)N[C@H](CCCNC(=N)N)C(=O)N[C@H](C)C(=O)N[C@H](CCCNC(=N)N)C(=O)N[C@H](CCCNC(=N)N)C(N)=O [SEQ ID NO: 18, Ac-crararr-NH2] (Ac-[dC][dR][dA][dR][dA][dR][dR]-NH2)
Output line: 87

Input line: Quick one: CC(=O)N[C@H](CS)C(=O)N[C@H](CCCNC(=N)N)C(=O)N[C@H](C)C(=O)N[C@H](C)C(=O)N[C@H](CCCNC(=N)N)C(=O)N[C@H](CCCNC(=N)N)C(=O)N[C@H](CCCNC(=N)N)C(N)=O [SEQ ID NO: 24, Ac-craarrr-NH2] (Ac-[dC][dR][dA][dA][dR][dR][dR]-NH2)
Output line: 9

Input line: Quick one: CC(=O)N[C@H](CS)C(=O)N[C@H](C)C(=O)N[C@H](C)C(=O)N[C@H](CCCNC(=N)N)C(=O)N[C@H](CCCNC(=N)N)C(=O)N[C@H](CCCNC(=N)N)C(=O)N[C@H](CCCNC(=N)N)C(N)=O [SEQ ID NO: 22, Ac-caarrrr-NH2] (Ac-[dC][dA][dA][dR][dR][dR][dR]-NH2)
Output line: 48
